experiment: chemical genetic growth profiling, strain panel (AID 1159580);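 also: tested at 20 µM; growth read once vehicle control cultures reached saturation at 30 °C; 1 = growth at the plate median or of vehicle wells; lower values mean less growth of the strain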; conditions: S. cerevisiae deletion strains, growth OD, locus YAL040C, strain CLN3, active compounds read low
Among all 5,500 compounds or so, about 2,000 (36%) were called active. About 18% were inconclusive and are not listed. Some of the results follow.
For each record, check the reported normalized growth: if it is below 1 write class 1, else write class 0.

Here's what some known entries look like.
COMPOUND	ANSWER LABEL
CC1Cc2cc3c(cc2C(c2ccc(N)cc2)=NN1)OCO3 (stereo unspecified)	class 1
C=CCN1CC[C@]23c4c5ccc(O)c4O[C@H]2/C(=N\NC(=O)c2ccccc2)CC[C@@]3(O)[C@H]1C5	class 0
N.N.N.N.N.N.N.N.N.N.N.N.N.N.O.O.[Ru+4].[Ru+5].[Ru+5]	class 1
CCCN1CCO[C@@H]2c3cc(O)ccc3OC[C@H]21	class 0
O=C1N=C(O)CN1/N=C\c1ccc(-c2ccc([N+](=O)[O-])cc2)o1	class 0
CCn1cc(C(=O)O)c(=O)c2cc3c(cc21)OCO3	class 1
CCCNC(C)C(=O)Nc1ccccc1C (stereo unspecified)	class 0
CCCN1CCc2cccc3c2[C@H]1Cc1ccc(O)c(O)c1-3	class 1
CC12C(=O)OC(=O)C1(C)C1CCC2O1 (stereo unspecified)	class 1
NC(=O)CI	class 1

Here's the next entry for you.
Regarding COc1cccc(-c2cc(=O)c3ccccc3o2)c1N , kindly confirm whether its normalized growth is beneath 1.
class 1
